The measurements presented in this section are drawn from paper PMC8151276.

Measured NanoBRET Fold Response values are reported for all entries that follow.
Biological target: P2RY1 (Homo sapiens)
Construct: purchased Promega (in-house HiBiT-GPCR construct library, NanoBRET)
Sequence (P47900 whole entry): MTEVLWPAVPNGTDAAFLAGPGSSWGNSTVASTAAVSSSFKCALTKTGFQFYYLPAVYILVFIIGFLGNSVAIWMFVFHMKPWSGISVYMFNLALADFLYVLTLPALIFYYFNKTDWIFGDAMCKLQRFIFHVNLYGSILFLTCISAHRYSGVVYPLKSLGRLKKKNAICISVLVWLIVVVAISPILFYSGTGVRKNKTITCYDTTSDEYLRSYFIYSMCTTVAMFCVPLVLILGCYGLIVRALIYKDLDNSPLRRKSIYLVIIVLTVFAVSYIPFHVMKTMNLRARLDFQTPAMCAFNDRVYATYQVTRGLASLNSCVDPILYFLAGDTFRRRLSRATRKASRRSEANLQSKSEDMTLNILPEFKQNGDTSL
Test: NanoBRET screen HiBiT-P2RY1 in HEK293
Assay type: binding
Details: P2RY1; tracer 0.1μM

- COMPOUND: "CC(C)N(CC[C@H](c1ccccc1)c1cc(CCNC(=O)CCOCCOCCOCCOCCNC(=O)CCc2ccc3n2[B-](F)(F)[N+]2=C(c4ccc[nH]4)C=CC2=C3)ccc1O)C(C)C"
  NanoBRET Fold Response: 0.97
- COMPOUND: "Cc1cc2c(s1)Nc1ccccc1N=C2N1CCN(CCCNC(=O)CCOCCOCCOCCOCCNC(=O)CCc2ccc3n2[B-](F)(F)[N+]2=C(c4ccc[nH]4)C=CC2=C3)CC1"
  NanoBRET Fold Response: 0.97
- COMPOUND: "O=C(CCc1ccc2n1[B-](F)(F)[N+]1=C(c3ccc[nH]3)C=CC1=C2)NCc1ccc(C(=O)NCCOCCC(=O)N[C@@H]2CC[C@@]3(O)[C@H]4Cc5ccc(O)c6c5[C@@]3(CCN4CC3CC3)[C@H]2O6)cc1 [Naltrexone-3-NB590]"
  NanoBRET Fold Response: 0.86
- COMPOUND: "CCCn1c(=O)c2[nH]c(-c3ccc(OCC(=O)NCCNC(=O)CCOCCNC(=O)c4ccc(CNC(=O)CCc5ccc6n5[B-](F)(F)[N+]5=C(c7ccc[nH]7)C=CC5=C6)cc4)cc3)nc2n(CCC)c1=O"
  NanoBRET Fold Response: 1.05
- COMPOUND: "COc1ccccc1N1CCN(CCCCN2C(=O)c3ccc(CNC(=O)CCOCCOCCOCCOCCNC(=O)CCc4ccc5n4[B-](F)(F)[N+]4=C(c6ccc[nH]6)C=CC4=C5)cc3C2=O)CC1"
  NanoBRET Fold Response: 0.97
- COMPOUND: "N#CN=C(NCCCOc1cccc(CN2CCCCC2)c1)NCCNC(=O)CCOCCOCCOCCOCCNC(=O)CCc1ccc2n1[B-](F)(F)[N+]1=C(c3ccc[nH]3)C=CC1=C2"
  NanoBRET Fold Response: 1.02

* * *

Molecular target: GALR2 (Homo sapiens, UniProt O43603)
Construct: purchased Promega (in-house HiBiT-GPCR construct library, NanoBRET)
Sequence (O43603 1-387): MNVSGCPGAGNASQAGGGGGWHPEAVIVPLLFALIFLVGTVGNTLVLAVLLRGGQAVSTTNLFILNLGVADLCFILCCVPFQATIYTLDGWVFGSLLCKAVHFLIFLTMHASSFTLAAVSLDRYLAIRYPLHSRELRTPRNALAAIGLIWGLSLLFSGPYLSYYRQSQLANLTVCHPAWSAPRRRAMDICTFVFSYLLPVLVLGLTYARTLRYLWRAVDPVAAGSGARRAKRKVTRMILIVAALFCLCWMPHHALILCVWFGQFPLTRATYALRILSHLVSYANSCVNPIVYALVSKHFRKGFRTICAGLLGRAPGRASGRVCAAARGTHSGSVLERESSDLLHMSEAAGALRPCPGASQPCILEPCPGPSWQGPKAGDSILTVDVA
Experiment: NanoBRET screen HiBiT-GALR2 in HEK293
Format: binding
Conditions: GALR2; tracer 0.1μM

- MOLECULE: "N#CN=C(NCCCOc1cccc(CN2CCCCC2)c1)NCCNC(=O)CCOCCOCCOCCOCCNC(=O)CCc1ccc2n1[B-](F)(F)[N+]1=C(c3ccc[nH]3)C=CC1=C2"
  NanoBRET Fold Response: 0.94
- MOLECULE: "Cc1nc2n(c(=O)c1CCN1CCC(c3noc4cc(F)ccc34)CC1)CCCC2OC(=O)NCCOCCOCCOCCOCCNC(=O)CCc1ccc2n1[B-](F)(F)[N+]1=C(c3ccc[nH]3)C=CC1=C2 (centres unmarked)"
  NanoBRET Fold Response: 1.03
- MOLECULE: "O=C(CCc1ccc2n1[B-](F)(F)[N+]1=C(c3ccc[nH]3)C=CC1=C2)NCc1ccc(C(=O)NCCOCCC(=O)N[C@@H]2CC[C@@]3(O)[C@H]4Cc5ccc(O)c6c5[C@@]3(CCN4CC3CC3)[C@H]2O6)cc1 [Naltrexone-3-NB590]"
  NanoBRET Fold Response: 1.00
- MOLECULE: "CC(C)N(CC[C@H](c1ccccc1)c1cc(CCNC(=O)CCOCCOCCOCCOCCNC(=O)CCc2ccc3n2[B-](F)(F)[N+]2=C(c4ccc[nH]4)C=CC2=C3)ccc1O)C(C)C"
  NanoBRET Fold Response: 0.97
- MOLECULE: "O=C(CCc1ccc2n1[B-](F)(F)[N+]1=C(c3ccc[nH]3)C=CC1=C2)NCCOCCOCCNC(=O)OCCOCCN1CCN(C2=Nc3ccccc3Sc3ccccc32)CC1"
  NanoBRET Fold Response: 1.01
- MOLECULE: "COc1ccccc1N1CCN(CCCCN2C(=O)c3ccc(CNC(=O)CCOCCNC(=O)c4ccc(CNC(=O)CCc5ccc6n5[B-](F)(F)[N+]5=C(c7ccc[nH]7)C=CC5=C6)cc4)cc3C2=O)CC1"
  NanoBRET Fold Response: 1.03
- MOLECULE: "COc1ccccc1N1CCN(CCCCN2C(=O)c3ccc(CNC(=O)CCOCCOCCOCCOCCNC(=O)CCc4ccc5n4[B-](F)(F)[N+]4=C(c6ccc[nH]6)C=CC4=C5)cc3C2=O)CC1"
  NanoBRET Fold Response: 1.00
- MOLECULE: "CC(C)N(CC[C@H](c1ccccc1)c1cc(CCNC(=O)c2ccc(CNC(=O)CCc3ccc4n3[B-](F)(F)[N+]3=C(c5ccc[nH]5)C=CC3=C4)cc2)ccc1O)C(C)C"
  NanoBRET Fold Response: 0.99
- MOLECULE: "CCCn1c(=O)c2[nH]c(-c3ccc(OCC(=O)NCCNC(=O)CCOCCNC(=O)c4ccc(CNC(=O)CCc5ccc6n5[B-](F)(F)[N+]5=C(c7ccc[nH]7)C=CC5=C6)cc4)cc3)nc2n(CCC)c1=O"
  NanoBRET Fold Response: 1.07
- MOLECULE: "Cc1cc2c(s1)Nc1ccccc1N=C2N1CCN(CCCNC(=O)CCOCCOCCOCCOCCNC(=O)CCc2ccc3n2[B-](F)(F)[N+]2=C(c4ccc[nH]4)C=CC2=C3)CC1"
  NanoBRET Fold Response: 0.96
- MOLECULE: "O=C(CCOCCOCCOCCOCCNC(=O)CCc1ccc2n1[B-](F)(F)[N+]1=C(c3ccc[nH]3)C=CC1=C2)NCCCN1CCN(C2=Nc3ccccc3Oc3ccc(Cl)cc32)CC1"
  NanoBRET Fold Response: 1.09
